Assay read-out pIC50; system under study: Neuraminidase (Influenza A virus, UniProt B4URF0).
Sequence (B4URF0 whole entry): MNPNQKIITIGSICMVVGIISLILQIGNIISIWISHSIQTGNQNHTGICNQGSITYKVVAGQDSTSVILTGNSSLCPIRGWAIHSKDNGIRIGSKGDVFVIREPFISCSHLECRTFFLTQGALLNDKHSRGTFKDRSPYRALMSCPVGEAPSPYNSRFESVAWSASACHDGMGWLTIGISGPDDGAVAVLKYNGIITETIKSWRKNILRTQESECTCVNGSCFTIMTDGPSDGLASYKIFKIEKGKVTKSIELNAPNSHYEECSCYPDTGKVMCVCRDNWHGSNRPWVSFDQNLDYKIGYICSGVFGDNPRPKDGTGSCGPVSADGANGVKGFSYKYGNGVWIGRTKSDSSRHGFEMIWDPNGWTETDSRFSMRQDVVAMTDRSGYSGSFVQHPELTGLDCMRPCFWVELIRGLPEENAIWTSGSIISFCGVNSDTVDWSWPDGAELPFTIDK
Give bare numbers, as −log10 of the molar value.

Record excerpt, results attached:
- COMPOUND_STRUCTURE: "CC(=O)N[C@H]1[C@H]([C@H](O)[C@H](O)CO)O[C@@](SCCCCCSCCCCCC(=O)NCCC[Si](CCCNC(=O)CCCCCSCCCCCS[C@]2(C(=O)O)C[C@H](O)[C@@H](NC(C)=O)[C@H]([C@H](O)[C@H](O)CO)O2)(CCCNC(=O)CCCCCSCCCCCS[C@]2(C(=O)O)C[C@H](O)[C@@H](NC(C)=O)[C@H]([C@H](O)[C@H](O)CO)O2)c2ccccc2)(C(=O)O)C[C@@H]1O"
  MEASURED_TARGET: "Neuraminidase (Influenza A virus, UniProt B4URF0)"
  DATA_VALUE: 2.57
- COMPOUND_STRUCTURE: "CC(=O)N[C@H]1[C@H]([C@H](O)[C@H](O)CO)O[C@@](SCCCCCSCCCOCCC[Si](CCCOCCCSCCCCCS[C@]2(C(=O)O)C[C@H](O)[C@@H](NC(C)=O)[C@H]([C@H](O)[C@H](O)CO)O2)(CCCOCCCSCCCCCS[C@]2(C(=O)O)C[C@H](O)[C@@H](NC(C)=O)[C@H]([C@H](O)[C@H](O)CO)O2)c2ccccc2)(C(=O)O)C[C@@H]1O"
  MEASURED_TARGET: "Neuraminidase (Influenza A virus, UniProt B4URF0)"
  DATA_VALUE: 2.30

Please look at the following molecule next.
Lookup: Bench note: what pIC50 did `CC(=O)N[C@H]1[C@H]([C@H](O)[C@H](O)CO)O[C@@](SCCCCCSCCCCCC(=O)NCCC[Si](CCCNC(=O)CCCCCSCCCCCS[C@]2(C(=O)O)C[C@H](O)[C@@H](NC(C)=O)[C@H]([C@H](O)[C@H](O)CO)O2)(CCCNC(=O)CCCCCSCCCCCS[C@]2(C(=O)O)C[C@H](O)[C@@H](NC(C)=O)[C@H]([C@H](O)[C@H](O)CO)O2)CCCNC(=O)CCCCCSCCCCCS[C@]2(C(=O)O)C[C@H](O)[C@@H](NC(C)=O)[C@H]([C@H](O)[C@H](O)CO)O2)(C(=O)O)C[C@@H]1O` show?
Found: 2.32
